System: Ribosome
Experiment: Induction of ribosome to readthrough in-frame UGA codon associated with renilla/firefly dystrophin R3381X nonsense mutant gene transfected in rabbit reticulocyte assessed as reduction in overall translation at 5 to 20 uM […] dual-luciferase reporter gene assay
Assay type: subcellular
Conditions: Oryctolagus cuniculus
Experimental readout: inhibition (%)
Report as a plain number; the unit % is understood.

{"Test smiles": "NCC[C@H](O)C(=O)N[C@@H]1C[C@H](N)[C@@H](O[C@H]2O[C@H](CO)[C@@H](O)[C@H](O)[C@H]2N)[C@H](O[C@@H]2O[C@H](CN)[C@@H](O)[C@H]2O)[C@H]1O", "inhibition (%)": 10}

In: Check the records and state inhibition for C[C@H](O)[C@H]1O[C@H](O[C@H]2[C@H](O[C@@H]3O[C@H](CN)[C@@H](O)[C@H]3O)[C@@H](O)[C@H](N)C[C@@H]2N)[C@H](N)[C@@H](O)[C@@H]1O
Out: 10

In: Look up and state reported inhibition for NC[C@H]1O[C@@H](O[C@@H]2[C@@H](O)[C@H](N)C[C@H](N)[C@H]2O[C@H]2O[C@H](CO)[C@@H](O)[C@H](O)[C@H]2N)[C@H](O)[C@@H]1O
Out: 10

In: Please supply the value of reported inhibition for the item C[C@H](O)[C@H]1O[C@H](O[C@H]2[C@H](O[C@@H]3O[C@H](CN)[C@@H](O)[C@H]3O)[C@@H](O)[C@H](NC(=O)[C@@H](O)CCN)C[C@@H]2N)[C@H](N)[C@@H](O)[C@@H]1O
Out: 50

Data origin: ChEMBL document CHEMBL1165913
